This collection of values is drawn from PubChem BioAssay (NCI).

protocol-text: NCI Yeast Anticancer Drug Screen. Data for the cln2 rad14 strain (AID 165);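 also: 0% = growth equal to vehicle treated cultures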
settings: S. cerevisiae cln2 rad14 strain, at 50.0 µM, active compounds read high
The panel holds about 79,000 compounds, 15% with a hit somewhere; the sample as a whole holds those more often.
quantity-name: growth inhibition (%)
State the answer as a number, implicitly in %.

Answered examples (4):
| compound | quantity-name | test-value |
| --- | --- | --- |
| CCOC(OC(C)=O)[C@@H]1C=C[C@H](C)N(c2ccc([N+](=O)[O-])cc2)O1 (stereo not given in full) | growth inhibition | 18.1 |
| CC1(C)N=C(C(N)=O)c2[nH]cnc2N1 | growth inhibition | 13.3 |
| CN(C)C1=NC(NC2CCCCC2)(N(C)C)OC(N(C)C)=N1 (stereo not given) | growth inhibition | 20.2 |
| CC(C)C1OC2(CCCCC2)OCC1(C)C (stereo not given) | growth inhibition | -8.35 |

Return growth inhibition for the following compound: CC(=O)/C(=C\c1ccc(/C=C(\C(C)=O)C(=O)CCN(C)C)cc1)C(=O)CCN(C)C
5
